- Tested on: six human cancer cell lines (Hs683, U-373 MG, HCT-15, LoVo, A549, J82)
- Assay overview: MTT test, summary over the six cell lines
- Format: cell-based
- Test context: Homo sapiens, 72 hours incubation, range over all 6 cell lines
pIC50: −log10 of the molar value.
Test readout: pIC50

Fill in reported pIC50 for this entry: COc1ccc(OC)c(C(C)(O)C2CCC3C4CC(=O)C5=CC(=O)CCC5(C)C4CCC32C)c1 (stereo not shown)
4.30 to 5.00

The reported measurements were obtained from patent US20060149045A1.
